Ref: the NIST ThermoML archive (doi:10.1021/acs.jced.7b00002)

Settings: 353.15 K; 97.6 kPa; Liquid; Vibrating tube method
ENDPOINT: mass density (kg/m3)
Quick note: give the figure in kg/m3, leave out the unit.

// below: answered molecules
Task item: Return reported mass density; argument: C[S+](C)[O-] [dimethyl sulfoxide]
Reply: 1040.33

Task item: Return reported mass density; argument: CN(C)C=O [dimethylformamide]
Reply: 890.98

Task item: Return reported mass density; argument: CCCCCCCC[n+]1ccn(C)c1.[Cl-] [1-methyl-3-octylimidazolium chloride]
Reply: 978.13

Task item: Return reported mass density; argument: c1ccncc1
Reply: 922.12

In the following, a different molecule is considered.
Task item: Return reported mass density; argument: CC(=O)N(C)C [N,N-dimethylethanamide]
Reply: 885.51
